- assayedTarget: T1, mouse MAdCAM expressed on cells (mouse, UniProt Q61826 22-405)
- T1 construct: whole, on cells
- T1 sequence (looked up): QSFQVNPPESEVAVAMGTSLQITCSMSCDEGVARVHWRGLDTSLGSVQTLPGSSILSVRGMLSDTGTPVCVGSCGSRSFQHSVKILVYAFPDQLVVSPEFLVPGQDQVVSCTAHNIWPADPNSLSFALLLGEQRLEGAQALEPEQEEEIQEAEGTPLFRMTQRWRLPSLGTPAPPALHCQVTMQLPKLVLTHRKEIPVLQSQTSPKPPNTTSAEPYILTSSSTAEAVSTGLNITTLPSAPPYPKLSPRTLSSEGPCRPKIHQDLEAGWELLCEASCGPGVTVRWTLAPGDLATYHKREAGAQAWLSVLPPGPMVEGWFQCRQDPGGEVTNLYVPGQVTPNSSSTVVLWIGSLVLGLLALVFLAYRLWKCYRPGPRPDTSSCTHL
- assayName: cell binding
measurementLabel: binding result

| binder | resultValue |
| --- | --- |
| MAdCAM Antibody Table 2 clone 76 (antibody, V domains shown, IgG format) VH: EVQLLESGGGLVQPGGSLRLSCAASGFTFDDYTMHWVRQAPGKGLEWVSDISGSGGSTYYADSVKGRFTISRDNSKNTLYLQMNSLRAEDTAVYYCAKDVVVAGTPLHFDYWGQGTLVTVSS VL: DIQMTQSPSSLSASVGDRVTITCQASQDISNYLNWYQQKPGKAPKLLIYAASYLQSGVPSRFSGSGSGTDFTLTISSLQPEDFATYYCQQAHNYPITFGQGTRLEIK | binds |
